The measurements presented in this section are drawn from the kinase profiling compilation of Christmann-Franck et al. (2016).

Target: FGFR4 (human) (UniProt P22455)
Sequence (P22455 whole entry, looked up): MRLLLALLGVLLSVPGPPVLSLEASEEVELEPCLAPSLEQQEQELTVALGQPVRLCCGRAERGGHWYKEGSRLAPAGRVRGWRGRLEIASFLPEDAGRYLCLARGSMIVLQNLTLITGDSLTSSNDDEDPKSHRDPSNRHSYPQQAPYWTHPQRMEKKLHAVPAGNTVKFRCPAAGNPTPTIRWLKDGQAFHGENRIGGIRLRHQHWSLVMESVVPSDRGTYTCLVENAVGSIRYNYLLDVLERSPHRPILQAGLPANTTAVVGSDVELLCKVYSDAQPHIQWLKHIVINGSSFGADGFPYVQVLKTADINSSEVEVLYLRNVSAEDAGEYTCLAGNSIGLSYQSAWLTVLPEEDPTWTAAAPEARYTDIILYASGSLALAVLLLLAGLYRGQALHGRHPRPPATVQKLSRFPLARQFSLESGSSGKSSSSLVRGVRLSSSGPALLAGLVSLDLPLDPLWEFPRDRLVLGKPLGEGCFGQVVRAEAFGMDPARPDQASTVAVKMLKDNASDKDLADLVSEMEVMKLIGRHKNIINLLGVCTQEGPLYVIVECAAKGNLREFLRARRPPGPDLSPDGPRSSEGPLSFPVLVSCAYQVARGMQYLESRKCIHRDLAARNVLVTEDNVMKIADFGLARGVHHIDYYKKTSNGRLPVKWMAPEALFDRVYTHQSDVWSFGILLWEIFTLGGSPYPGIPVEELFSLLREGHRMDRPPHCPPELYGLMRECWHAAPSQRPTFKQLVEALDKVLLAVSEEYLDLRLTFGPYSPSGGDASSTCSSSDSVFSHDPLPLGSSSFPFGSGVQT
Experiment: radiometric filter-binding kinase assay, Kinase HotSpot
Conditions: compound 0.5 µM; ATP 10 µM
Attribute measured: residual activity (%)

>  <Compound>
COc1cc2ncnc(Nc3cccc(Cl)c3)c2cc1OC

>  <Attribute measured>
residual activity

>  <Readout unit>
%

>  <Recorded result>
78.7

$$$$
>  <Compound>
Nc1ncnc2c1c(-c1ccc(Oc3ccccc3)cc1)cn2C1CCCC1

>  <Attribute measured>
residual activity

>  <Readout unit>
%

>  <Recorded result>
98

$$$$
>  <Compound>
CCC(=O)Nc1ccc2ncnc(Nc3cccc(Br)c3)c2c1

>  <Attribute measured>
residual activity

>  <Readout unit>
%

>  <Recorded result>
95.2

$$$$
>  <Compound>
Nc1cccc(-c2cc3c(Oc4cccc(O)c4)ncnc3[nH]2)c1

>  <Attribute measured>
residual activity

>  <Readout unit>
%

>  <Recorded result>
45.1

$$$$
>  <Compound>
Oc1cccc(-c2nc(N3CCOCC3)c3oc4ncccc4c3n2)c1

>  <Attribute measured>
residual activity

>  <Readout unit>
%

>  <Recorded result>
102

$$$$
>  <Compound>
CO[C@H]1CC2CC[C@@H](C)[C@@](O)(O2)C(=O)C(=O)N2CCCC[C@H]2C(=O)OC([C@H](C)C[C@@H]2CC[C@@H](O)[C@H](OC)C2)CC(=O)[C@H](C)/C=C(\C)[C@@H](O)[C@@H](OC)C(=O)[C@H](C)C[C@H](C)/C=C/C=C/C=C/1C (some centres undefined)

>  <Attribute measured>
residual activity

>  <Readout unit>
%

>  <Recorded result>
76.6

$$$$
>  <Compound>
O=C(Nc1cccc(Nc2nccc(Nc3cccc(C(F)(F)F)c3)n2)c1)C1CC1

>  <Attribute measured>
residual activity

>  <Readout unit>
%

>  <Recorded result>
101

$$$$
>  <Compound>
CCN(CC)C(=O)c1ccc(Nc2nc(OCC3CCCCC3)c3nc[nH]c3n2)cc1

>  <Attribute measured>
residual activity

>  <Readout unit>
%

>  <Recorded result>
94.4

$$$$
>  <Compound>
Cc1ccc(NC2=CC(=O)c3sc(C)nc3C2=O)cc1

>  <Attribute measured>
residual activity

>  <Readout unit>
%

>  <Recorded result>
86.7

$$$$
>  <Compound>
O=C1NC(=O)/C(=C/c2ccc3c(c2)OC(F)(F)O3)S1

>  <Attribute measured>
residual activity

>  <Readout unit>
%

>  <Recorded result>
91

$$$$
>  <Compound>
O=c1cc(N2CCOCC2)oc2c1ccc1ccccc12

>  <Attribute measured>
residual activity

>  <Readout unit>
%

>  <Recorded result>
108

$$$$
>  <Compound>
CNC(=O)c1cc(Oc2ccc(NC(=O)Nc3ccc(Cl)c(C(F)(F)F)c3)cc2)ccn1

>  <Attribute measured>
residual activity

>  <Readout unit>
%

>  <Recorded result>
104

$$$$
>  <Compound>
CC[n+]1c(/C=C/N(C)c2ccccc2)n(-c2ccccc2)c2ccc(-c3nc4ccccc4s3)cc21

>  <Attribute measured>
residual activity

>  <Readout unit>
%

>  <Recorded result>
84.1

$$$$
>  <Compound>
c1ccc(-c2n[nH]cc2-c2ccnc3ccccc23)nc1

>  <Attribute measured>
residual activity

>  <Readout unit>
%

>  <Recorded result>
80.6

$$$$

====

Biological target: KDR (human)
Assay: radiometric filter-binding kinase assay, Kinase HotSpot
Settings: compound 0.5 µM; ATP 10 µM

>  <Molecule>
CC(C)N(CCC(=O)c1ccc2ccccc2c1)Cc1ccccc1

>  <Readout unit>
%

>  <residual activity>
98.9

$$$$
>  <Molecule>
CCCC(=O)Oc1ccc2[nH]c(C(=O)c3cc4ccccc4[nH]3)cc2c1

>  <Readout unit>
%

>  <residual activity>
90.4

$$$$
>  <Molecule>
Cc1ccc(S(=O)(=O)/C=C/C#N)cc1

>  <Readout unit>
%

>  <residual activity>
94.7

$$$$
>  <Molecule>
COc1ccc2c(c[n+](C)c3c4cc5c(cc4ccc23)OCO5)c1OC

>  <Readout unit>
%

>  <residual activity>
104

$$$$
>  <Molecule>
O=C1NC(=O)/C(=C/c2ccc3c(c2)OC(F)(F)O3)S1

>  <Readout unit>
%

>  <residual activity>
94.6

$$$$
>  <Molecule>
Oc1cccc(-c2nc(N3CCOCC3)c3oc4ncccc4c3n2)c1

>  <Readout unit>
%

>  <residual activity>
85.9

$$$$
>  <Molecule>
COc1ccc(COc2ccc(Cc3cnc(N)nc3N)cc2OC)cc1

>  <Readout unit>
%

>  <residual activity>
109

$$$$
>  <Molecule>
CC[n+]1c(/C=C/N(C)c2ccccc2)n(-c2ccccc2)c2ccc(-c3nc4ccccc4s3)cc21

>  <Readout unit>
%

>  <residual activity>
93.9

$$$$
>  <Molecule>
CO[C@H]1CC2CC[C@@H](C)[C@@](O)(O2)C(=O)C(=O)N2CCCC[C@H]2C(=O)OC([C@H](C)C[C@@H]2CC[C@@H](O)[C@H](OC)C2)CC(=O)[C@H](C)/C=C(\C)[C@@H](O)[C@@H](OC)C(=O)[C@H](C)C[C@H](C)/C=C/C=C/C=C/1C (stereo partly drawn)

>  <Readout unit>
%

>  <residual activity>
98.1

$$$$
>  <Molecule>
N#CC(C#N)=C(N)/C(C#N)=C/c1ccc(O)cc1

>  <Readout unit>
%

>  <residual activity>
97.2

$$$$
>  <Molecule>
CCN(CC)CCNC(=O)c1c(C)[nH]c(/C=C2\C(=O)Nc3ccc(Cl)cc32)c1C

>  <Readout unit>
%

>  <residual activity>
13.8

$$$$
>  <Molecule>
CNc1cc2c(Nc3cccc(Br)c3)ncnc2cn1

>  <Readout unit>
%

>  <residual activity>
77.6

$$$$
>  <Molecule>
CCC(=O)Nc1ccc2ncnc(Nc3cccc(Br)c3)c2c1

>  <Readout unit>
%

>  <residual activity>
96.5

$$$$
>  <Molecule>
O=C1NC(=O)C(c2cn(CCCn3ccnc3)c3ccccc23)=C1Nc1ccccc1

>  <Readout unit>
%

>  <residual activity>
90.2

$$$$
>  <Molecule>
CCN(CC)C(=O)c1ccc(Nc2nc(OCC3CCCCC3)c3nc[nH]c3n2)cc1

>  <Readout unit>
%

>  <residual activity>
76.5

$$$$
>  <Molecule>
Nc1ccc2ncnc(NCCc3ccc(Oc4ccccc4)cc3)c2c1

>  <Readout unit>
%

>  <residual activity>
91.7

$$$$
>  <Molecule>
Cc1[nH]c(/C=C2\C(=O)Nc3ccc(S(=O)(=O)N(C)c4cccc(Cl)c4)cc32)c(C)c1C(=O)N1CCN(C)CC1

>  <Readout unit>
%

>  <residual activity>
79.4

$$$$
>  <Molecule>
Nc1ncnc2[nH]nc(Nc3ccc(F)cc3)c12

>  <Readout unit>
%

>  <residual activity>
104

$$$$
>  <Molecule>
c1ccc(-c2n[nH]c3c2oc2ccccc23)cc1

>  <Readout unit>
%

>  <residual activity>
107

$$$$
>  <Molecule>
CCOC(=O)c1c(C)[nH]c(/C=C2\C(=O)Nc3ccccc32)c1C

>  <Readout unit>
%

>  <residual activity>
93.2

$$$$
>  <Molecule>
CC(=O)c1ccc(N2CCOCC2)cc1O

>  <Readout unit>
%

>  <residual activity>
97.7

$$$$
>  <Molecule>
O=C1NC(=O)c2c1c1c3ccccc3n3c1c1c2c2ccccc2n1C1CCC3O1

>  <Readout unit>
%

>  <residual activity>
4.55

$$$$
>  <Molecule>
CC#CC(=O)Nc1cc2c(Nc3ccc(F)c(Cl)c3)ncnc2cn1

>  <Readout unit>
%

>  <residual activity>
98.2

$$$$
>  <Molecule>
O=S(=O)(c1cccc2cnccc12)N1CCCNCC1

>  <Readout unit>
%

>  <residual activity>
86.9

$$$$
>  <Molecule>
Cc1ccc(NC2=CC(=O)c3sc(C)nc3C2=O)cc1

>  <Readout unit>
%

>  <residual activity>
101

$$$$
>  <Molecule>
O=c1cc(N2CCOCC2)oc2c1ccc1ccccc12

>  <Readout unit>
%

>  <residual activity>
86.8

$$$$
>  <Molecule>
COc1cc2ncnc(Nc3cccc(Cl)c3)c2cc1OC

>  <Readout unit>
%

>  <residual activity>
74.7

$$$$
>  <Molecule>
O=C1Nc2ccc(Cl)cc2/C1=C/c1cc(Cl)c(O)c(Cl)c1

>  <Readout unit>
%

>  <residual activity>
86.1

$$$$
>  <Molecule>
c1ccc(-c2n[nH]cc2-c2ccnc3ccccc23)nc1

>  <Readout unit>
%

>  <residual activity>
103

$$$$
>  <Molecule>
Nc1ncnc2c1c(-c1ccc(Oc3ccccc3)cc1)cn2C1CCCC1

>  <Readout unit>
%

>  <residual activity>
75

$$$$
>  <Molecule>
O=C(Nc1cccc(Nc2nccc(Nc3cccc(C(F)(F)F)c3)n2)c1)C1CC1

>  <Readout unit>
%

>  <residual activity>
91.6

$$$$
>  <Molecule>
N#C/C(=C(/N)Sc1ccc(N)cc1)c1ccccc1C(F)(F)F

>  <Readout unit>
%

>  <residual activity>
94.4

$$$$
>  <Molecule>
Nc1cccc(-c2cc3c(Oc4cccc(O)c4)ncnc3[nH]2)c1

>  <Readout unit>
%

>  <residual activity>
6.7

$$$$
